- Tested on: PDGFRA
- Conditions used: concentration: 1 μM, replicates: in singlicate; n = 1;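 note: KINOMEscan kinase panel screen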
Assay endpoint: %Inh (%)
// return numeric value only (unit: %, not printed)

Problem: Enter reported %Inh observed with PDGFRA for O=C(NCCCN1CCOCC1)c1cccc(Nc2nccc(Nc3ccc(Oc4ccccc4)cc3)n2)c1
Solution: 46

Problem: Enter reported %Inh observed with PDGFRA for Cc1cn2c(=O)cc(N3CCOCC3)nc2n1Cc1cccc(Cl)c1Cl
Solution: 0

Problem: Enter reported %Inh observed with PDGFRA for Cc1nnc(-c2ccc(C)c(-c3ccc(C(=O)Nc4ccc(NS(C)(=O)=O)cc4)cc3)c2)o1
Solution: 9

Problem: Enter reported %Inh observed with PDGFRA for Cc1c(Cn2c(C)nn3c(=O)cc(N4CCOC(C)C4)nc23)cccc1C(F)(F)F (centres unmarked)
Solution: 0

Problem: Enter reported %Inh observed with PDGFRA for C[C@@H](Oc1cc(-n2cnc3ccc(NC(=O)NC(C)(C)C)cc32)sc1C(N)=O)c1ccccc1Cl
Solution: 4

Problem: Enter reported %Inh observed with PDGFRA for c1ccc(-c2cc(-c3c[nH]nc3-c3ccccn3)ccn2)cc1
Solution: 0

Problem: Enter reported %Inh observed with PDGFRA for Cc1nnc(-c2ccc3occ(-c4ccc(C(C)O)cc4)c3c2)o1 (centres unmarked)
Solution: 0

Problem: Enter reported %Inh observed with PDGFRA for Cc1cccc(-c2nc(-c3ccc(S(C)(=O)=O)cc3)sc2-c2ccncc2)c1
Solution: 10

---

- Test system: TTK
- Conditions used: concentration: 1 μM, replicates: in singlicate; n = 1
Assay endpoint: %Inh (%)
// return numeric value only (unit: %, not printed)

Problem: Quick one: %Inh of Fc1ccc(-c2nn3c(OCC(F)(F)F)cccc3c2-c2ccncc2)cc1 ?
Solution: 0

Problem: Quick one: %Inh of COc1ccc(S(=O)(=O)NC2CCN(c3cc(C)nc(Nc4cccc(C#N)c4)n3)CC2)cc1.O=C(O)C(F)(F)F ?
Solution: 0

Problem: Quick one: %Inh of Cc1nnc(-c2ccc3occ(-c4ccc(C(C)O)cc4)c3c2)o1 (stereo not drawn) ?
Solution: 8

Problem: Quick one: %Inh of Nc1nccc(-c2c(-c3ccc(F)cc3)ncn2C2CCN(CC(F)(F)F)CC2)n1 ?
Solution: 0

Problem: Quick one: %Inh of O=C(NOCC1CC1)c1ccc(F)c(F)c1Nc1ccc(I)cc1Cl ?
Solution: 0

Problem: Quick one: %Inh of COc1ccc(Nc2nccc(N3CCC(NC(=O)Nc4cccc(C(C)=O)c4)C3)n2)cc1 (stereo not drawn) ?
Solution: 15

Problem: Quick one: %Inh of Fc1ccc(-c2ncn(CCCN3CCOCC3)c2-c2cccnc2)cc1 ?
Solution: 15

Problem: Quick one: %Inh of NS(=O)(=O)c1cccc(-c2ccc3nccc(-c4cccc(S(N)(=O)=O)c4)c3c2)c1 ?
Solution: 0

Problem: Quick one: %Inh of CC(C)(CN)c1nc(-c2ccc(Cl)c(O)c2)c(-c2ccncc2)[nH]1.O=C(O)C(F)(F)F ?
Solution: 0

Problem: Quick one: %Inh of O=C(Nc1n[nH]c2cc(-c3cccc(F)c3)ccc12)C1CC1 ?
Solution: 21

Problem: Quick one: %Inh of Cc1cccc(-c2nc(-c3ccc(S(C)(=O)=O)cc3)sc2-c2ccncc2)c1 ?
Solution: 20

Problem: Quick one: %Inh of Cn1ccc2ncnc(Oc3ccc(NC(=O)Nc4ccncc4)c(Cl)c3)c21 ?
Solution: 0

Problem: Quick one: %Inh of c1ccc(-c2n[nH]cc2-c2ccnc3ccccc23)nc1 ?
Solution: 4

Problem: Quick one: %Inh of CN(C(=O)c1ccc(-c2cc(-c3c[nH]nc3-c3ccccn3)ccn2)cc1)C1CCOCC1 ?
Solution: 0

Problem: Quick one: %Inh of Cn1cc(-c2ccc3c(c2)CCN3C(=O)Cc2ccccc2Cl)c2c(N)ncnc21 ?
Solution: 17

Problem: Quick one: %Inh of CCCCCc1nc2c(N)ncnc2n1CCCCC ?
Solution: 0

Problem: Quick one: %Inh of CCc1nc(-c2cccc(C)c2)c(-c2ccnc(NCc3ccccc3)c2)s1 ?
Solution: 12

Problem: Quick one: %Inh of COc1ccc(Nc2ncc(C#N)c(Nc3ccccc3C(N)=O)n2)cc1N1CCN(C)CC1.Cl ?
Solution: 99.5

All figures here come from paper PMC5540273.
